Reference source for all entries: patent US20100022402A1

- MEASURED TARGET: T1, λD-Base display phage (gpD fused to basic aptamer [Gly-Arg]4) (bacteriophage lambda), P03712
- T1 chain: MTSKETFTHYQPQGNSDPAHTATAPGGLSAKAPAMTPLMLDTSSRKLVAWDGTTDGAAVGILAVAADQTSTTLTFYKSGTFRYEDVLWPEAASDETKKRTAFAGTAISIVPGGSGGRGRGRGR
- EXPERIMENTAL DETAILS: apparent KD, calculated as the concentration of free peptide that results in an IC50 in the λD-Acid:λD-Base co-infection assay
Where no end group is shown, it is not given here.
OBSERVABLE: pKd
Friendly reminder that pKd comes from taking -log10 of the concentration in mol/L.

Challenge: For GEGEGEGE (not fully specified) [Acidic Aptamer (free synthetic peptide [Gly-Glu]4)] , what is its reported pKd?
Response given: 8.00
